Reference source: PubChem BioAssay (EPA / NIEHS)

- assay name: BSK_3C_Vis: BioMAP Diversity Plus: 3C Assay for Morphology Visualization (AID 2283025);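 also: fitted both ways so gain or loss versus DMSO counts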
- protocol conditions: primary human endothelial cells (HUVEC)
The source made the active and inactive calls. The calls were made as follows: active = hit-call score of the fitted dose curve at least 0.9, where 1 is the maximum; inactive = score below 0.9.
Use one of these outcomes when replying: active, inactive

Look over these answered cases.
c1ccc2occc2c1 : inactive
CCCCCCC(C=O)=Cc1ccccc1 : active
CCCCC(CC)COC(=O)CCCCCCCC(=O)OCC(CC)CCCC (configuration not stated) : inactive
CCCCCCC(CCCCCCCCCCC(=O)OCC(COC(C)=O)OC(C)=O)OC(C)=O (configuration not stated) : inactive
O=C(NS(=O)(=O)/C=C/c1cccs1)c1ccc(F)cc1Br : inactive
CC(=O)OCC(COC(C)=O)OC(C)=O : inactive
C=CCCCCCCCCCCCC : inactive
Cc1ccc(C(C)(C)C)c(O)c1 : inactive
O=C1CCCCC1 : inactive
O=C1c2c(O)cccc2Cc2cccc(O)c21 : active

GET /call?item= COC(=O)CCC(=O)OC returns the recorded outcome of this test.
inactive

Per the assay record, what outcome was assigned to CC(COCC(C)OC(=O)c1ccccc1)OC(=O)c1ccccc1 (configuration not stated) ?
inactive

For this molecule, state the assay outcome: CCOCCOCCO
inactive

So what was the verdict on Cc1cc(Cc2ccc(N)c(C)c2)ccc1N in this test?
inactive

What is the recorded call for this molecule in the test? CC(N)=O
inactive

# fetch the recorded call for CCc1cc(C2=C(C(=O)O)N(c3ccccc3C(F)(F)F)S(=O)(=O)c3ccccc32)cc2c1OCO2 here
inactive

What is the recorded call for this molecule in the test? S=c1[nH]c2ccccc2s1
inactive

Hey, what did the test say about Cc1ccc(-c2cc(C(F)(F)F)nn2-c2ccc(S(N)(=O)=O)cc2)cc1 ?
active

Lab log entry: CCCC[C@H]1CN(CC2CCOCC2)C(=O)OC12CCN(C1(C)CCN(C(=O)c3c(C)ncnc3C)CC1)CC2 — outcome as called in the assay?
inactive

How was C#CC(O)C(CC)CCCC (configuration not stated) classified in this test?
inactive

What was the test verdict on Oc1ccccc1O ?
inactive

How was N[C@@H](Cc1c[nH]c2ccccc12)C(=O)O classified in this test?
inactive
